# Tested on: DLD1
# procedure details: TCF/Wnt firefly luciferase reporter signal relative to plate median (fraction of plate median); higher = higher Wnt reporter signal
# condition description: 5 µM; treatment time 24 h; reporter: 7TFP
assay metric: TCF/Wnt firefly luciferase reporter signal
One number for each entry.

CC1(C)S[C@@H]2[C@H](NC(=O)[C@H](N)c3ccc(O)cc3)C(=O)N2[C@H]1C(=O)O | 1.11
COc1cccc(OC)c1C(=O)N[C@@H]1C(=O)N2[C@@H]1SC(C)(C)[C@@H]2C(=O)O | 1.14
Cc1cc(O)c(C=O)c(O)c1C(=O)O | 1.09
O=C(O)c1cccnc1C(=O)O | 1.04

Would you kindly look at the next entry?
Using known records, supply TCF/Wnt firefly luciferase reporter signal for C[C@H](CCC(=O)O)[C@H]1CC[C@H]2[C@@H]3CC[C@@H]4C[C@H](O)CC[C@]4(C)[C@H]3CC[C@]12C 1.21

* * *

# Test system: HCT116
# procedure details: cell viability (CellTiter-Glo) relative to plate median (fraction of plate median); higher = more viable cells
# condition description: 5 µM; treatment time 24 h; reporter: TCF4/Wnt
Give cell viability for every item shown.
One number for each entry.

Look over these answered cases.
O=C(O)c1c2ccccc2cc2ccccc12 | 1.02
COc1ccc(C2C(=O)c3ccccc3C2=O)cc1 | 0.984
CC(C)(Oc1ccc(C2CC2(Cl)Cl)cc1)C(=O)O (configuration not stated) | 0.968
COC1=CC(=O)C[C@@H](C)[C@]12Oc1c(Cl)c(OC)cc(OC)c1C2=O | 1.02
CCc1ccc(CCOc2ccc(CC3SC(=O)NC3=O)cc2)nc1 (configuration not stated) | 0.904

Could you report cell viability for every entry in the following list?
1. COc1cc(NS(=O)(=O)c2ccc(N)cc2)ncn1
2. O=c1oc2ccccc2c(O)c1Cc1c(O)c2ccccc2oc1=O
3. COc1ccc(C(C)=O)c(OC)c1
4. COc1cc2oc3cc(OC)c(OC)c(CC=C(C)C)c3c(=O)c2c(O)c1CC=C(C)C
5. CN(C)CCN(Cc1ccccc1)c1ccccn1
6. C#C[C@]1(O)CC[C@H]2[C@@H]3CCC4=C(CCC(=O)C4)[C@H]3CC[C@@]21C
7. CCN(CC)CCNC(=O)c1cc(Cl)c(N)cc1OC

1: 0.946; 2: 0.979; 3: 0.963; 4: 1; 5: 0.925; 6: 0.974; 7: 1.04

* * *

Give cell viability for every item shown.
# Tested on: SW480
# procedure details: cell viability (CellTiter-Glo) relative to plate median (fraction of plate median); higher = more viable cells
# condition description: 5 µM; treatment time 24 h; reporter: 7TFP

C[n+]1cc2c3c(ccc2c2ccc4cc5c(cc4c21)OCO5)OCO3 | 0.99
Clc1ccccc1CN1CCc2sccc2C1 | 1
COc1ccc2c(c1)OCC(Cc1ccc(OC)c(OC)c1)C2=O (stereo not given) | 1.02
C=CCNC1=C2C[C@@H](C)C[C@H](OC)[C@H](O)[C@@H](C)/C=C(\C)[C@H](OC(N)=O)[C@@H](OC)/C=C\C=C(/C)C(=O)NC(=CC1=O)C2=O | 0.972
O=c1c2ccccc2oc2ccccc12 | 0.98
COc1ccc2ccc(=O)oc2c1 | 0.97
O=C(CCCCC(=O)Nc1c(I)cc(I)c(C(=O)O)c1I)Nc1c(I)cc(I)c(C(=O)O)c1I | 1.01
CCCCCC(=O)Cc1cc(O)cc(O)c1C(=O)Oc1cc(CC(=O)CCCCC)c(C(=O)O)c(OC)c1 | 0.966
CC(C)NCC(O)c1ccc(O)c(O)c1 (stereo not given) | 0.999
COc1cc2c(cc1OC)C1(O)C(=O)c3ccc(O)c(C(=O)O)c3OC1CO2 (stereo not given) | 1.08

Could you report cell viability for every entry in the following list?
1. CC(=O)O[C@@H]1CC2C(C)(C)C(=O)CC[C@]2(C)C2CC[C@]3(C)C(=CC(=O)O[C@H]3c3ccoc3)[C@@]21C (stereo not given in full)
2. COc1cc(N)c(Cl)cc1C(=O)NC1CCN(Cc2ccccc2)CC1
3. CC(C)C[C@@H]1NC(=O)[C@H](CCCN)NC(=O)[C@H](C(C)C)NC(=O)[C@H](Cc2ccc(O)cc2)N[C@@H](CCC(=O)O)C(=O)N[C@@H](CC(N)=O)C(=O)[C@@H](Cc2ccccc2)NC(=O)[C@H](Cc2ccccc2)NC(=O)[C@@H]2CCCN2C(=O)[C@@H](Cc2ccccc2)NC1=O
4. Cc1c(N(C)CS(=O)(=O)O)c(=O)n(-c2ccccc2)n1C
5. CCOC(=O)Nc1nc2ccccc2[nH]1
6. CC(=O)OC(C)C[N+](C)(C)C (stereo not given)

[1.07, 0.975, 0.486, 1.06, 1.06, 0.997]

Could you report cell viability for every entry in the following list?
1. COC(=O)[C@]1(C)CCC[C@]2(C)c3ccc(C(C)C)cc3C(=O)CC12 (stereo not given in full)
2. N=C(N)NCCCCN

1.05
1.02

Could you report cell viability for every entry in the following list?
1. C#C[C@]1(O)CC[C@H]2[C@@H]3CCC4=C(CCC(=O)C4)[C@H]3CC[C@@]21C
2. COc1cc(-c2cc(=O)c3c(O)c(OC)c(OC)c(OC)c3o2)cc(OC)c1OC

0.913
0.956
